From: patent US20230128402A1

Target: ALDH1a3 (Homo sapiens)
Sequence (P47895 1-512): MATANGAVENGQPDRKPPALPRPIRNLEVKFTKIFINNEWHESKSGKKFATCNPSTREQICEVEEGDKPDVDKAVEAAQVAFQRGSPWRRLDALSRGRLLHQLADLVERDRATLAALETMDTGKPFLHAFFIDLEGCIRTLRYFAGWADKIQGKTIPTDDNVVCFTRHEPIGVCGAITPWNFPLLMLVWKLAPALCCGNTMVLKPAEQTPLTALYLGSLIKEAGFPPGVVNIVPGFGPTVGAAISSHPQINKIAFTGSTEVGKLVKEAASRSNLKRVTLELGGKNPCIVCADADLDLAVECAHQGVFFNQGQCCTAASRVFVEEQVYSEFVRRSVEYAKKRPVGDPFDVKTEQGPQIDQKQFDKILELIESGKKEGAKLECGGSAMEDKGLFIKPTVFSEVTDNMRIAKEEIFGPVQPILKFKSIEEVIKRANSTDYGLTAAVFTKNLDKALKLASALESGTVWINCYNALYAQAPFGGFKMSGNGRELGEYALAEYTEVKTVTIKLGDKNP
Test: Aldh1a3 enzyme inhibition assay, recombinant hALDH1a3
Conditions: resorufin fluorescence, 20° C.
pIC50: −log10 of the molar value.
Measured pIC50 of individual entries

Here's what some known entries look like.
molecule: Cc1ccc(C(=O)Nc2ccc3c(c2)CCC(=O)N3)cc1C
endpoint: pIC50
test-value: < 5.30
--
molecule: CCc1cnccc1C(=O)Nc1ccc2c(c1)C(C)CC(=O)N2 (centres unmarked)
endpoint: pIC50
test-value: 6.60 to 7.00

For this molecule ( CCCc1cnccc1C(=O)Nc1ccc2c(c1)CCC(=O)N2 ), measured pIC50 is 6.60 to 7.00

For this molecule ( CC1(C)Cc2cc(Nc3ccc4ccncc4n3)ccc2NC1=O ), measured pIC50 is 5.30 to 6.00

For this molecule ( CCc1cnccc1C(=O)Nc1cc2c(cc1Cl)NC(=O)CC2 ), measured pIC50 is > 7.00

For this molecule ( O=C1CCc2cc(Nc3ccc4ccccc4n3)ccc2N1 ), measured pIC50 is 6.00 to 6.60

For this molecule ( Cc1nc(Nc2ccc3c(c2)CC(C)(C)C(=O)N3)nc2ccccc12 ), measured pIC50 is 6.00 to 6.60

For this molecule ( C=CCc1cnccc1C(=O)Nc1ccc2c(c1)CCC(=O)N2 ), measured pIC50 is 6.00 to 6.60

For this molecule ( CCc1cnccc1C(=O)Nc1cc2ccc(=O)[nH]c2cc1F ), measured pIC50 is 6.00 to 6.60

====

Target: ALDH1a3 (Homo sapiens, UniProt P47895)
Test: Aldh1a3 enzyme inhibition assay, recombinant hALDH1a3
Conditions: resorufin fluorescence, 20° C.
pIC50: −log10 of the molar value.
endpoint: pIC50

Here's what some known entries look like.
given-smiles: N#Cc1ccc2ccc(Nc3ccc4c(c3)CCC(=O)N4)nc2c1
test-value: < 5.30
--
given-smiles: CCc1cnccc1/C=C/c1ccc2c(c1)CCC(=O)N2
test-value: 6.60 to 7.00
--
given-smiles: CC1(C)Cc2cc(Nc3nc4ccccc4o3)ccc2NC1=O
test-value: 6.00 to 6.60

For this molecule ( CC(C)=Cc1cnc(C)cc1C(=O)Nc1ccc2c(c1)CC(C)(C)C(=O)N2 ), measured pIC50 is < 5.30

For this molecule ( Cc1cccc2nc(Nc3ccc4c(c3)CCC(=O)N4)ccc12 ), measured pIC50 is 6.00 to 6.60

For this molecule ( CN(C)Cc1cnccc1C(=O)Nc1ccc2c(c1)CCC(=O)N2 ), measured pIC50 is < 5.30

For this molecule ( CCc1cnccc1CNc1cc2c(cc1F)NC(=O)CC2 ), measured pIC50 is 5.30 to 6.00

For this molecule ( Cc1ccc(Nc2ccc3c(c2)CC(C)(C)C(=O)N3)nc1C ), measured pIC50 is < 5.30

For this molecule ( Cc1cc2ccccc2nc1Nc1ccc2c(c1)CC(C)(C)C(=O)N2 ), measured pIC50 is 6.00 to 6.60

For this molecule ( O=S1(=O)CCc2cc(Nc3ccc4ccccc4n3)ccc2N1 ), measured pIC50 is < 5.30

====

Target: mALDH1a3 (Mus musculus, UniProt Q9JHW9)
Sequence (Q9JHW9 whole entry): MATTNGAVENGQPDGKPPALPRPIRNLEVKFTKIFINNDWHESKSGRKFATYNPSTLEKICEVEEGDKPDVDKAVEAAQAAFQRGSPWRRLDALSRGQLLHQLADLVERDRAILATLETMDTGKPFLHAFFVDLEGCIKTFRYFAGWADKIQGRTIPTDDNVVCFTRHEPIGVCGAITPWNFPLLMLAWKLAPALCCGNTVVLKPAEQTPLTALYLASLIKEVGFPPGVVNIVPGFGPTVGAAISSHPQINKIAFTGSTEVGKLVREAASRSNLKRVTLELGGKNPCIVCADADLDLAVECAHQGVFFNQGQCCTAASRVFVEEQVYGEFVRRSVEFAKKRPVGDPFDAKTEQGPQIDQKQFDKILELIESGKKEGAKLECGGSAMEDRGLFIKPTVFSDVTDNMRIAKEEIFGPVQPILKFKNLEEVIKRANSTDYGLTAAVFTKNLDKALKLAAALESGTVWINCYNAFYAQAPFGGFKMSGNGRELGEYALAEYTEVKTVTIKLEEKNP
Test: Aldh1a3 enzyme inhibition assay, recombinant mALDH1a3
Conditions: resorufin fluorescence, 20° C.
pIC50: −log10 of the molar value.
endpoint: pIC50

Here's what some known entries look like.
compound: CCCc1cnccc1C(=O)Nc1cc2c(cc1F)NC(=O)CC2
pIC50: 6.00 to 6.60
//
compound: CC1(C)Cc2cc(Nc3ncc4ccccc4n3)c(F)cc2NC1=O
pIC50: 6.00 to 6.60
//
compound: CC1(C)Cc2cc(Nc3ccc4cnccc4n3)ccc2NC1=O
pIC50: < 5.30
//
compound: CCc1cnccc1C(=O)Nc1ccc2c(c1)CC(C)(C)C(=O)N2
pIC50: 5.30 to 6.00
//
compound: CN(C)Cc1cnccc1C(=O)Nc1ccc2c(c1)CCC(=O)N2
pIC50: < 5.30

For this compound ( CC1(C)Cc2cc(Nc3c[nH]c4c(c3=O)CCCC4)ccc2NC1=O ), measured pIC50 is < 5.30

For this compound ( Cc1cc(C(=O)Nc2cc3c(cc2F)NC(=O)CC3)ccn1 ), measured pIC50 is < 5.30

For this compound ( O=C1CCc2cc(NC(=O)c3ccncc3CC3CC3)c(F)cc2N1 ), measured pIC50 is > 7.00

For this compound ( O=C1CCc2cc(NC(=O)c3ccnc4ccccc34)ccc2N1 ), measured pIC50 is 6.60 to 7.00

For this compound ( CCc1cnccc1NC(=O)c1ccc2c(c1)CCC(=O)N2 ), measured pIC50 is < 5.30

====

Molecular target: UniProtKB P47895
Test: Aldh1a3 enzyme inhibition assay, recombinant hALDH1a3
Conditions: resorufin fluorescence, 20° C.
endpoint: IC50

Here's what some known entries look like.
compound: O=C1CCc2cc(Nc3cnc4ccccc4n3)ncc2N1
test-value: 250 to 1000 nM
//
compound: CCc1cnc(C)cc1C(=O)Nc1cc2c(cc1F)NC(=O)CC2 [Compound 79]
test-value: 250 to 1000 nM
//
compound: Cc1cnccc1/C=C/c1ccc2c(c1)CCC(=O)N2
test-value: > 5000 nM
//
compound: CCc1cc(C(=O)Nc2ccc3c(c2)CCC(=O)N3)ccn1
test-value: > 5000 nM

For this compound ( N#Cc1cccc2ncc(Nc3ccc4c(c3)CCC(=O)N4)cc12 ), measured IC50 is > 5000 nM

For this compound ( O=C1CCc2cc(Nc3ccc4ccccc4n3)c(F)cc2N1 ), measured IC50 is 100 to 250 nM

For this compound ( CCc1cnccc1C(=O)Nc1ccc2c(c1)C(C)(C)C(=O)N2 ), measured IC50 is > 5000 nM

For this compound ( CC(C)Cc1cnccc1C(=O)Nc1cc2c(cc1F)NC(=O)CC2 ), measured IC50 is < 100 nM

For this compound ( CC1(C)Cc2cc(Nc3ccc4c(c3)NC(=O)CC4)ccc2NC1=O ), measured IC50 is > 5000 nM

For this compound ( Cc1cc(C(=O)Nc2ccc3c(c2)CC2(CC2)C(=O)N3)c(Cl)cn1 ), measured IC50 is 1000 to 5000 nM

For this compound ( CC1(C)Cc2cc(Nc3ccc4ccccc4n3)ccc2NC1=O ), measured IC50 is 1000 to 5000 nM

For this compound ( O=C1CCc2cc(Nc3nccc4ccccc34)ccc2N1 ), measured IC50 is > 5000 nM

For this compound ( CCc1cnccc1C(=O)Nc1ccc2c(c1)CN(C)C(=O)N2 ), measured IC50 is 1000 to 5000 nM

For this compound ( CC1(C)Cc2cc(Nc3cnc4ccccc4n3)ccc2NC1=O ), measured IC50 is 100 to 250 nM

For this compound ( CCc1cnc(Cl)cc1C(=O)Nc1cc2c(cc1F)NC(=O)CC2 ), measured IC50 is < 100 nM

For this compound ( CC1(C)Cc2cc(Nc3ncc4ccccc4n3)ccc2NC1=O ), measured IC50 is 250 to 1000 nM

For this compound ( O=C1CCc2cc(NC(=O)c3ccnc4ccccc34)ccc2N1 ), measured IC50 is 250 to 1000 nM

For this compound ( O=C1CCc2cc(NC(=O)c3ccncc3C(F)(F)F)ccc2N1 ), measured IC50 is 250 to 1000 nM

For this compound ( CCc1cnccc1C(=O)Nc1ccc2c(c1)CCC(=O)N2C ), measured IC50 is > 5000 nM

For this compound ( Cc1ccc2ccc(Nc3ccc4c(c3)CCC(=O)N4)nc2c1 ), measured IC50 is > 5000 nM

====

Measured pIC50 of individual entries
Target: ALDH1a3 (Homo sapiens, UniProt P47895)
Test: Aldh1a3 enzyme inhibition assay, recombinant hALDH1a3
Settings: resorufin fluorescence, 20° C.
pIC50: −log10 of the molar value.

given-smiles: Cc1ccc2nc(Nc3ccc4c(c3)CCC(=O)N4)ccc2c1
pIC50: < 5.30
--
given-smiles: N#Cc1cccc2nc(Nc3ccc4c(c3)CCC(=O)N4)ccc12
pIC50: < 5.30
--
given-smiles: CCc1cnccc1C(=O)Nc1cc2c(cc1F)NC(=O)CC2(C)C
pIC50: 5.30 to 6.00
--
given-smiles: COc1cnccc1C(=O)Nc1cc2c(cc1F)NC(=O)C(C)(C)C2
pIC50: < 5.30
--
given-smiles: CCc1cnccc1C(=O)NCc1ccc2c(c1)CCC(=O)N2
pIC50: < 5.30
--
given-smiles: CCc1c[n+]([O-])ccc1C(=O)Nc1ccc2c(c1)CCC(=O)N2
pIC50: 5.30 to 6.00
--
given-smiles: CC1(C)Cc2cc(Nc3ccc(Cl)c(Cl)n3)ccc2NC1=O
pIC50: 5.30 to 6.00
--
given-smiles: Cc1ccccc1C(=O)Nc1ccc2c(c1)CCC(=O)N2
pIC50: < 5.30

Kindly consider the entry below.
Recorded pIC50 for N#Cc1ccc2nc(Nc3ccc4c(c3)CCC(=O)N4)ccc2c1 on ALDH1a3 (Homo sapiens, UniProt P47895) was < 5.30
